# inhibition at 33 µM annotations
# system under test: HCV-NS5b (Hepatitis C virus genotype 1b, UniProt Q9WMX2)
# Construct: (His)6 (C); made in house; host or cells: XL-1 cells (E. coli), IPTG-inducible plasmid, nickel-NTA purification
# experimental protocol: HCV-NS5b enzyme assay (incorporation of radiolabeled UTP)
# Assay type: biochemical
# measurement conditions: enzyme inhibition at compound concentration of 33 uM
# number only, unit % dropped from output

COc1ccc(-c2ccco2)c(-c2ccc3cc(-c4nc5cc(C(=O)O)ccc5n4C4CCCCC4)ccc3n2)c1 | 98.3
O=C1COc2ccc(-c3ccc4cc(-c5nc6cc(C(=O)O)ccc6n5C5CCCCC5)ccc4n3)cc2N1 | 98.8
O=C(O)c1ccc2c(c1)nc(-c1ccc3nc(-c4ccccc4)cnc3c1)n2C1CCCCC1 | 75
O=C(O)c1ccc2c(c1)nc(-c1ccc3nc(-c4ccccc4)cc(NCCCCO)c3c1)n2C1CCCCC1 | 59.6
O=C(O)c1ccc2c(c1)nc(-c1ccc3nc(-c4ccccc4Br)ccc3c1)n2C1CCCCC1 | 94.2
O=C(O)c1ccc2c(c1)nc(-c1ccc3nc(-c4ccc(-n5ccnc5)cc4)ccc3c1)n2C1CCCCC1 | 99.2
O=C(O)c1ccc2c(c1)nc(-c1ccc3nc(-c4cc(C(=O)N5CCCC5)ccc4-c4ccc(F)cc4)ccc3c1)n2C1CCCCC1 | 100
O=C(O)c1ccc2c(c1)nc(-c1ccc3nc(-c4ccccc4Br)c(-c4ccccc4)cc3c1)n2C1CCCCC1 | 98.7
CC(C)N(C(=O)c1ccc2cc(-c3nc4cc(C(=O)O)ccc4n3C3CCCCC3)ccc2n1)c1ccc(Cl)cc1 | 99.1
CNC(=O)c1ccc(-c2ccccc2)c(-c2ccc3cc(-c4nc5cc(C(=O)O)ccc5n4C4CCCCC4)ccc3n2)c1 | 101

Recorded inhibition at 33 µM (molecule COc1cc(Br)c2oc(-c3ccc4cc(-c5nc6cc(C(=O)O)ccc6n5C5CCCCC5)ccc4n3)cc2c1 ): 98.9

FYI, the data here is from patent US7511145B2.
